- Test system: JiyoyeP-2003 (Burkitt's Lymphoma);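 further: after 72 h of two-drug dosing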
- Test Name: Bliss excess, mean over the matrix (fraction); higher = more synergy
Would you mind classing the entries by Bliss excess? Ranges: A = under -0.02, B = from -0.02 up to 0.02, C = 0.02 and over

[
  {
    "Compound": "CN(CCO)CC[C@H](CSc1ccccc1)Nc1ccc(S(=O)(=O)NC(=O)c2ccc(N3CCC([C@@H](O)c4ccccc4-c4ccc(Cl)cc4)CC3)cc2)cc1S(=O)(=O)C(F)(F)F [AZD4320] + CCN(CCO)CCCOc1ccc2c(Nc3cc(CC(=O)Nc4cccc(F)c4)[nH]n3)ncnc2c1 [AZD2811] (first compound max 1 µM, 7x7, partner max 1 µM)",
    "Label Class": "C"
  },
  {
    "Compound": "CN(C)CCCOc1ccc(-c2ccc3ncc4c(c3c2)n(C2CCOCC2)c(=O)n4C)cn1 [AZD0156] + C=CCn1c(=O)c2cnc(Nc3ccc(N4CCN(C)CC4)cc3)nc2n1-c1cccc(C(C)(C)O)n1 [AZD1775] (first compound max 1 µM, partner max 1 µM)",
    "Label Class": "B"
  },
  {
    "Compound": "COc1nnc2ccc(N3CCC(c4ccc(OCCN5CCN(C)C(=O)[C@H]5C)cc4)CC3)nn12 [AZD5153] + Cc1c2c(nn1C)CSCc1cc(n(C)n1)CSc1cc(c3ccccc3c1)OCCCc1c(C(=O)O)n(C)c3c-2c(Cl)ccc13 [AZD5991] (first compound max 1 µM, 7x7, partner max 1 µM)",
    "Label Class": "A"
  },
  {
    "Compound": "NC1(C(=O)N[C@@H](CCO)c2ccc(Cl)cc2)CCN(c2ncnc3[nH]ccc23)CC1 [Capivasertib] + C[C@@H]1COCCN1C2=NC(=NC(=C2)C3(CC3)[S@](=N)(=O)C)C4=C5C=CNC5=NC=C4 [AZD6738] (first compound max 10 µM, 7x7, partner max 10 µM)",
    "Label Class": "A"
  },
  {
    "Compound": "NC1(C(=O)N[C@@H](CCO)c2ccc(Cl)cc2)CCN(c2ncnc3[nH]ccc23)CC1 [Capivasertib] + COc1nnc2ccc(N3CCC(c4ccc(OCCN5CCN(C)C(=O)[C@H]5C)cc4)CC3)nn12 [AZD5153] (first compound max 10 µM, 7x7, partner max 1 µM)",
    "Label Class": "A"
  }
]

Query :: Bin? COc1cccc(OCCCN)c1-c1cc(Nc2cnc(C#N)cn2)n[nH]1 [Prexasertib] + Cc1cc2ncnn2cc1Nc1ncc2c(n1)n(C1CCOCC1)c(=O)n2C [AZD7648] (first compound max 1 µM, 7x7, partner max 10 µM)
Result :: B

Query :: Another: Cc1c2c(nn1C)CSCc1cc(n(C)n1)CSc1cc(c3ccccc3c1)OCCCc1c(C(=O)O)n(C)c3c-2c(Cl)ccc13 [AZD5991] + Cc1cc2ncnn2cc1Nc1ncc2c(n1)n(C1CCOCC1)c(=O)n2C [AZD7648] (first compound max 1 µM, 7x7, partner max 10 µM)
Result :: C

Query :: Another: CC1(C)CCC(CN2CCN(c3ccc(C(=O)NS(=O)(=O)c4ccc(NCC5CCOCC5)c([N+](=O)[O-])c4)c(Oc4cnc5[nH]ccc5c4)c3)CC2)=C(c2ccc(Cl)cc2)C1 [Venetoclax] + Cc1cc2ncnn2cc1Nc1ncc2c(n1)n(C1CCOCC1)c(=O)n2C [AZD7648] (first compound max 1 µM, 7x7, partner max 10 µM)
Result :: A

Origin of measurements: the supplement of paper PMC11061612
